- assay summary: protease stability score; higher = more stable; yeast display proteolysis, trypsin and chymotrypsin;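 note: log10 excess protease needed over predicted unfolded state with 0 meaning unfolded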
Listing of recorded protease stability score by entry.
Form rule: numeric answer, no unit written next to it.

Record excerpt, results attached:
[
  {
    "macromolecule sequence": "DEKQNDVVDDFMRAVREGDPTQLKSLVDPNARIQIGDRTYTGMEEYVTHVHKDLRKMRIEIRIKDIKAHNGHARIEFEVINTDNGRPDKKRMDVEFRIHNGKLKEAQYKSDR",
    "reading": 0.766
  },
  {
    "macromolecule sequence": "DDDQLDRNATQMMEALQTGDEQTLNNLVDPDVRFHIGDKVVHGRDQWNEQVKKIRDRADRIHIKHVEAQGDKVRMEFVLNINGRNIRVRMEAEVHNGRFKVITFDPEQVKEMRK",
    "reading": 1.19
  },
  {
    "macromolecule sequence": "DEQAKEHIEEWMKAVKTGDEHTLREMADENAHFEIGDKTLHGMREFVKEQAERFRNIRVSYKRIDIRVQGNKVTVVVRFVVQHDGRPDERTVTFVFTFHNGQIENMQVKDEQ",
    "reading": 1.17
  },
  {
    "macromolecule sequence": "DEENADVIRRFLDAIHTGNPDDARKNADPNAQYKIGDKTYSGMERWVKTLQDQKRHQEIDIKIKHISVKGDKITVEFVVVVNINGRPVSFSAILSAEVKNGKIKHLQYHISEEQKRKVEG",
    "reading": 0.222
  },
  {
    "macromolecule sequence": "DESDLSRQAKELIDNWETGNPDKMRKLMDENVTADVGDKRWHGRDEVVKWFKTLVDSIDHIEVREFKVSGNSVTFTAEANVNGKKATFQVVIEVHNGKIKDVKVNPDDLKQLEK",
    "reading": 1.58
  }
]

For the next question, use this sequence.
Noted for DERQIEQLKRYLEALKTGDKEKIKELLDPNARIVYGDKEVKGRENIAEQVKKRKDDSRYDWTSVDVKTSGDKLVMTARKVNNRNGRPHERQFTADIKIKNGRMQHLQFDSTG : its protease stability score reads -0.323

###

Listing of recorded protease stability score by entry.
- assay summary: protease stability score; higher = more stable; yeast display proteolysis, trypsin and chymotrypsin;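 note: log10 excess protease needed over predicted unfolded state with 0 meaning unfolded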
Form rule: numeric answer, no unit written next to it.

Record excerpt, results attached:
[
  {
    "macromolecule sequence": "DEEKMDRAKEHYKAIQKGDHERARQLADPNATFVIGDKTIHGREEYADQMKKRRDHIRIEIKSVTFNEEEGRVDVKIEQVRQHNGKPKKFRQDVKFDVQGDKIHQISVTEKK",
    "protease stability score": 0.189
  },
  {
    "macromolecule sequence": "DDEDVNRHAESISRALERGDEERLLELLDENVTVEYGDKRVHGREEIERFLREFHRHADHIKVDRVKARGNKVRIRAVNDYDGRKVDYVFHFQFENGRVRKVKIEEK",
    "protease stability score": 1.29
  },
  {
    "macromolecule sequence": "DEREEEKMAEDLLNAVERNNPDHAQKMVDENARVVIGDKDVHGRERMREAIKRQKEQFDRFRWTDVKVDNGRVRAQAVYERNGRTHHVDLNAVIHNGRAKSVRIEEK",
    "protease stability score": 0.022
  },
  {
    "macromolecule sequence": "DEKHDAKRVWETILNQLRRGDSEEFMKLADKDVKIEYGDKTIHGREDLKSWMNERQKDYDHLDADLTHMDVQGEDVNVTYTDRAKHNGTEHHRTVQAVFRVHNGRLRLQSWYHS",
    "protease stability score": 0.494
  },
  {
    "macromolecule sequence": "DETDKAHEFMRKMKRALDQNDPDKLMDLFDPNAKVKVGEKKIHGRERISNDLQRHAHNADHIHMEIQDMKVSGDKINITFRVTSVVNGNTRSNRVLIRARIDNGHIKAVDVQQK",
    "protease stability score": 0.855
  }
]

Noted for DEDANRLVEEYIRAVEKGDEDQARRMMDENVTVKVGDKTVHGHDHQAREMNKVKKQARIEIKDYRLDNSNGRVVIRMTFIADRNGKPITFDIVIIINFHNGRAKNMHVHISEEELKRLEG : its protease stability score reads 1.06

Noted for DEDAVKLAQEVWKAMHTGDEDKFVKLVDPNARVKIGDKDIHGKDDIKKQLHNRNREIRVRLKHIEIDQNGDQARIHMRFQMTHDGQPRDQSATATMRAQGDKLKSISVTNHG : its protease stability score reads -0.206

Noted for EEHIKEVLDRVREAWRKNNPDDLKRNFDPNARFNIGNKRYHGMEHFVEDVARLLHEIHVEIHYHHITFDGNEARFSYDAVFNVDGRPIRDSMSRRVILHNGKIVDMKVDVDPKELDKKLK : its protease stability score reads -0.093

Noted for DEEKILRVLKEVVKAIQNGNKEEVRKKGKPDVEVQLADERNRGVDQLVRLAEFDKKLGVQFEYKETRQKGGKMTTVVEVTLDGTTIRYEVHVEAEGGKVKRWEVRMDKKFIRIAQES : its protease stability score reads 0.077

Noted for DEENAKTLKQQMNQYQSGDEEEVQENVDKDAKFVIGDKRIHGREKYREQVRRELEDIRIDVKIKHLNDKGEKVQVHARLERNHNGRPTDATVDVVVRWHNGRAKEAQFHTDG : its protease stability score reads -0.11

Noted for DEDLQEFAERLLQVNRTGDEDQFRRNVDPNAKMVVGDKEYHGRDELARFFRHLREHARFELNVKSVSVEGDTVEIHFEARVDINGKPLTYEASMSMRVEGDRVKRITFRMDPDQRRKAHS : its protease stability score reads 1.11
